- TEST TARGET: T1, recombinant human NKG2A/CD94 heterodimer (extracellular domains) (human, UniProt Q13241 32-179)
- T1 construct: extracellular domain; ECDs co-expressed in Expi293, purified by Ni-NTA and anti-Flag; also called HuNKG2A/huCD94; NKG2A/CD94 ECDs
- T1 sequence (chain, as listed by the source, chain 1 of 2): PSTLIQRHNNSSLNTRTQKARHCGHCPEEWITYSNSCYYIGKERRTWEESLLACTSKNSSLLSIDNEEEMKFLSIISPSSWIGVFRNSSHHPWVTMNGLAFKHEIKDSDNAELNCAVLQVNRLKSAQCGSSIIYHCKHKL
- T1 sequence (Q13241 32-179, chain 2 of 2): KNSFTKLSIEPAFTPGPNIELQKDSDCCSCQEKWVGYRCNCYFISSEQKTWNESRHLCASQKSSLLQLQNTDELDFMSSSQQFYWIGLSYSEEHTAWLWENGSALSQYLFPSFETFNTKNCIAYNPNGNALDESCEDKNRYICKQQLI
- EXPERIMENTAL DETAILS: SPR (IBIS MX96), mAb captured on anti-human IgG Fc, ECD heterodimer injected, 1:1 fit
pKd: −log10 of the molar value.
Overview of recorded pKd for various binders
READOUT LABEL: pKd

INSERT INTO results (binder, readout_label, numeric_result) VALUES
  ('antibody 23566 (antibody, human IgG1, kappa, L234A L235A, V domains shown, Fully human IgG1-LALA (L234A/L235A), kappa; also called mAb 23566) VH: EVQLLESGGDLVQPGGSLRLSCAASGFTFDNYAMHWVRQAPGKGLEWVSTITNSGGTTYYADSVKGRFTLSRDNSKNTLYLQMNSLRAEDTAVYYCAKAHYYARGYFDFWGQGTLVTVSS VL: DIQMTQTPSSVSASVGDRVTITCRASQGISSWLAWYQQKPGKAPKLLIYAASSLQSGVPSRFSGSGSGTDFTLTISSLQPEDFATYYCQQANSFPYTFGQGTKLEIKR', 'pKd', 8.60),
  ('antibody 23765 (antibody, human IgG1, kappa, L234A L235A, V domains shown, Fully human IgG1-LALA (L234A/L235A), kappa) VH: EVQLVESGGGLVKPGGSLRLSCAASGFTFSCCRMNWVRQAPGKGLEWVSSISSSSSYIYYADSVKGRFTISRDNAKNSLYLQMNSLRAEDTAVYYCARDGWNDVFDYWGQGTLVTVSS VL: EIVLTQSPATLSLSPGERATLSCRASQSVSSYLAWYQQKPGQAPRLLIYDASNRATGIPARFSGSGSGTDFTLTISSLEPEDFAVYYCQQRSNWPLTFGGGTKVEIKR', 'pKd', 7.82),
  ('antibody 23925 (antibody, human IgG1, kappa, L234A L235A, V domains shown, Fully human IgG1-LALA (L234A/L235A), kappa) VH: EVQLVESGGGLVQPGGSLRLSCAASGFTFSSYAMNWVRQAPGKGLEWVSTISNSGGTTYYADSVKGRFTISRDNSKDTLYLQMNSLRAEDTAVYYCAKAHYYARGYFDYWGQGTLVTVSS VL: DIQMTQSPSSVSASVGDRVTITCRASQGISSWLAWYQQKSGKAPKLLIYAASSLQIGVPSRFSGSGSGTDFTLTISSLQPEDFATYYCQQANSFPYTFGQGTKLEIKR', 'pKd', 8.65);
